// reported pIC50 for each item listed
molecular target: MLLT3 (Homo sapiens); assay: MLLT3 HTRF IC50 determination assay (H3K9cro peptide displacement); format: binding; conditions: Table 5
Sequence (P42568 whole entry, species assumed): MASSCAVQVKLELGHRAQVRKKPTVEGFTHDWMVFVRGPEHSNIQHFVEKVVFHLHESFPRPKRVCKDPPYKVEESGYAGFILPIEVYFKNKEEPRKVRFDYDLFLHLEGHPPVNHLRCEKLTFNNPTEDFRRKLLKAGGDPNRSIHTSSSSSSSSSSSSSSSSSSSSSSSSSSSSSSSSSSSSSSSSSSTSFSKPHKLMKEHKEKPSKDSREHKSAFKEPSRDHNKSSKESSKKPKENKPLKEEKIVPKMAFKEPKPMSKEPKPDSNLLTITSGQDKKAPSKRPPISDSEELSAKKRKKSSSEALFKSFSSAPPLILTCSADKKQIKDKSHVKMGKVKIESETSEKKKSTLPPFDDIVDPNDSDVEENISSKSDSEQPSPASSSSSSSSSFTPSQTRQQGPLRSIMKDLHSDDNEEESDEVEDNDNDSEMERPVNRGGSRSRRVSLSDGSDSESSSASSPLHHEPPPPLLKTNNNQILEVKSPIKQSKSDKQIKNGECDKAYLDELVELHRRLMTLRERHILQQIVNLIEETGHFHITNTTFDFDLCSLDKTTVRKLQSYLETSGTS
# reply with the number alone; pIC50 is -log10 of concentration in mol/L

# annotated cases, reported pIC50 shown
{"Molecule": "Cc1nn(C)c2cc(C(=O)Nc3cc4[nH]c([C@H]5CCCN5C)cc4cn3)ccc12 (single isomer, unassigned)", "Observed result": 7.09}
{"Molecule": "Cc1c(C2CCCN2C)[nH]c2cc(NC(=O)c3ccc4c(C)nn(C)c4c3)ncc12 (single isomer, unassigned)", "Observed result": 7.35}
{"Molecule": "Cc1nn(C)c2cc(C(=O)Nc3cc4[nH]c(C5CCCN5C)c(F)c4cn3)ccc12 (single isomer, unassigned)", "Observed result": 7.43}

Annotate the molecule Cc1nc(NC(=O)c2ccc3c(C)nn(C)c3c2)cc2[nH]c(C3CCCN3C)cc12 (single isomer, unassigned) with its measured pIC50.
7.20

Given "Cc1nn(C)c2cc(C(=O)Nc3cc4[nH]c([C@H]5CCCN5C)c(Cl)c4cn3)ccc12" , respond with its pIC50.
7.66
